Please provide measured inhibition of aggregation for the entries that follow.
# assay.info: reduction of polyQ htt aggregates in cells – imaging, exon1htt(103Q)mCFP cells, high-content imaging, primary screen (AID 483);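 further: compound exposure lasted 3 days before fixation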
# measurement.context: exon1htt(103Q)mCFP cell line, aggregate imaging, at 2 µM; hits give high values
Provide the reading as a plain figure in %.

Find the recorded inhibition of aggregation belonging to `COc1cc(-c2nnc(SCC(=O)c3ccc(C)cc3)o2)cc(OC)c1OC` and report it.
-8.1

`Cc1cc(C(C)(C)C)c(O)c(C)c1CC1=NCCN1` ?
2.2

`CCN1CCN(CCCNC(=O)c2cn(CCOC)c(=O)c3c2c2ccccc2n3C)CC1` ?
5.8

`O=C(c1ccc(Cl)cc1)C1CCN(C(=O)NC2CCCCC2)CC1` ?
13.9

`O=C(CCCn1c(=S)[nH]c2ccccc2c1=O)N1CCCCC1` ?
6.5

`Cc1c(Br)c(C(F)(F)F)nn1CC(=O)NCCN1CCOCC1` ?
0.2

Cc1cc(C)nc(N2CCCC(C(=O)Nc3ccc4c(c3)OCO4)C2)n1 (stereo unspecified) ?
15.3

`CCOC(=O)N1CCN(CC(=O)Nc2c(C(=O)OC)[nH]c3cccc(Cl)c23)CC1` ?
-5.4

`Cc1ccc(C(C)C)c(OCc2nnc(SCC(=O)Nc3ncc(C)s3)n2C)c1` ?
-35.5

CCC(Sc1nc2n[nH]c(C)c2c(=N)n1-c1cc(Cl)ccc1C)C(=O)N1CCOCC1 (stereo unspecified) ?
11.8

`CCOCC(=O)Nc1nc2ccc(OC)cc2s1` ?
-11.8

###

# target.desc: Muscarinic acetylcholine receptor M4 (Homo sapiens) (UniProt P08173)
# Sequence (P08173 whole entry, looked up): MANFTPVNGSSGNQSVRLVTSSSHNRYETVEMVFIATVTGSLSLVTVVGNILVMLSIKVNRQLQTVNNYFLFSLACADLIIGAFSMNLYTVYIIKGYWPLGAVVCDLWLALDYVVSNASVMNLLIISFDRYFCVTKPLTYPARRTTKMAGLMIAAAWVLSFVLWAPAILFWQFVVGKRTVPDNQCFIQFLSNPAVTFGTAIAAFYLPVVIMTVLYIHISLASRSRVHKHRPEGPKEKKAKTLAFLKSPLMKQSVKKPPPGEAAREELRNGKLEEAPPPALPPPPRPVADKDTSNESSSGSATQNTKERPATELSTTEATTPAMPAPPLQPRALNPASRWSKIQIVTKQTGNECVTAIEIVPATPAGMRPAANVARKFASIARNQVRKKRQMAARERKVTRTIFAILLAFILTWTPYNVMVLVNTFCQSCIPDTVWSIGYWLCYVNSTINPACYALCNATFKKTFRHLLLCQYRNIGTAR
# assay.info: M4-linked GIRK flux change, two-sided – cell-based, HEK293 M4/GIRK, thallium flux, BTC-AM, M4 allosteric agonist project, primary screen (AID 625);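 further: thallium influx through GIRK channels coupled to M4 in HEK293 cells with BTC-AM dye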
# measurement.context: at 10 µM, actives lie on both sides
Binning of fluorescence slope into classes: low-valued (below 0.006), mid-valued (0.006 to below 0.007), high-valued (0.007 or more)

# bin label for Cc1ccc(C(=O)C2COC(=O)C2)cc1 (configuration not stated)
mid-valued

`Cc1cc(NC(=O)CSc2nc3ccsc3c(=O)n2NC(=O)c2ccccc2)no1` ?
mid-valued

`O=c1c2ccccc2nc(-c2cccc(Cl)c2)n1O` ?
high-valued

`O=C(Nc1ccc2c(c1)OCO2)c1ccc(Br)c(S(=O)(=O)N2CCCC2)c1` ?
low-valued

N#Cc1c(NC(=O)COC(=O)C2CC3C=CC2C3)oc(-c2ccccc2)c1-c1ccccc1 (configuration not stated) ?
low-valued

`Clc1ccc(SCCn2ccnc2)cc1` ?
mid-valued

`Cc1cc2c(nn1)CCC/C2=N\O` ?
low-valued

`CCc1nnc(NC(=O)OCc2ccccc2)s1` ?
high-valued

###

Please provide measured inhibition of aggregation for the entries that follow.
# assay.info: reduction of polyQ htt aggregates in cells – imaging, exon1htt(103Q)mCFP cells, high-content imaging, primary screen (AID 483);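 further: compound exposure lasted 3 days before fixation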
# measurement.context: exon1htt(103Q)mCFP cell line, aggregate imaging, at 2 µM; hits give high values
Provide the reading as a plain figure in %.

Find the recorded inhibition of aggregation belonging to `O=C(CSc1nc2[nH]ncc2c(=O)n1-c1ccccc1Br)NCc1ccco1` and report it.
-8.3

`Cc1cc2c(=O)n(CC(=O)N3CCN(c4ccccc4)CC3)cnc2s1` ?
0.5

`Cc1ccc(-c2nc(-c3cccnc3)no2)c(C)c1` ?
-8

CCn1ncc(C2=NOC(C(=O)NCc3ccc(Cl)cc3)C2)c1C (centres undefined) ?
-30.2

`O=C(O)Cn1cc2c(n1)CCCC2` ?
-7.3

Cc1ccc(CSc2nc3c(c(=O)[nH]2)C(c2ccncc2)C2=C(CCCC2=O)N3)cc1 (centres undefined) ?
3.6

`CCn1c(=O)cc(SCC(=O)N2CCOCC2)c2ccccc21` ?
0.4

`CC(=O)Nc1nc(C)c(-c2csc(Nc3ccc(O)cc3)n2)s1` ?
33.1

`COc1cc(CC(=O)Nc2ncc(C)s2)cc(OC)c1OC` ?
20.3

`Nc1nc2ccccc2n1/N=C/c1ccc(Br)cc1` ?
-2.4

`COc1ccccc1S(=O)(=O)n1cc(Cc2ccccc2)c(N)n1` ?
0.9

`COc1ccc(N(CC(=O)NC2CCCC2)C(=O)Cn2nnc(-c3ccc(C)cc3)n2)cc1` ?
8.3

O=C1CC(c2cccc(Cl)c2)CC(O)=C1C=NCCCO (centres undefined) ?
0.4

`CCOc1ccc2cc(C#N)c(SCC(=O)N3CCCC3)nc2c1` ?
3.1

`O=C(NCCc1cccc(Cl)c1)c1cccnc1` ?
-14.1

`CC1(C)S[C@@H]2[C@H](NC(=O)Cc3ccccc3)C(=O)N2[C@H]1C(=O)O` ?
9.3

`CCOc1ccc(C(=O)N2CCC(C(=O)c3ccc4c(c3)OCCO4)CC2)cc1` ?
6

`Brc1ccc(-c2cn3cccnc3n2)cc1` ?
-8.8

`CC(C)OC(=O)CSc1nnnn1-c1ccc2c(c1)OCCO2` ?
-2.7

`Cc1nnc(N(Cc2ccco2)C(=O)c2cccc(C#N)c2)s1` ?
9.6

`CNC(=O)CN(c1cc(C)ccc1OC)S(=O)(=O)c1ccc(C)cc1` ?
-22

`COc1ccc(C(=O)NCCn2ccc3ccccc32)cc1` ?
25.9

CCC(C)C(NC(=O)C1CCC(C)CC1)C(=O)NCc1cccnc1 (centres undefined) ?
1.5

`CCSc1nnc(NC(=O)c2nn(C(C)C)c(=O)c3ccccc23)s1` ?
15.4

###

Please provide measured fluorescence slope for the entries that follow.
# target.desc: Voltage-gated potassium channel subunit beta-2 (Rattus norvegicus)
# assay.info: inhibitors of rat Kvbeta2 reductase activity – biochemical, NADPH fluorescence, primary screen (AID 622);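 further: slope of raw intensity against log time taken from 70 to 1610 s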
# measurement.context: recombinant KvBeta, 4-cyanobenzaldehyde reduction, at 10 µM, hits give high values
Lab note: record just the number, no unit beside it.

Find the recorded fluorescence slope belonging to `Cn1nnnc1SCC(=O)Nc1ccccc1C(=O)NCc1ccccc1` and report it.
-0.275

`O=C(Cn1cnc2sc(-c3ccccc3)cc2c1=O)N1CCOCC1` ?
-0.445

`CSc1cccc(NC(=O)C2CCN(S(C)(=O)=O)CC2)c1` ?
-0.438

`CCCCc1ccc(NC(=O)COCC)cc1` ?
-0.585

`Cc1cccc2cc(C#N)c(NCCNC(=O)NC3CCCCC3)nc12` ?
-0.471

`CN1CC[n+]2cnc3ccccc3c21` ?
-0.585

`Cc1ccc(N2CN=c3s/c(=C\c4cccnc4)c(=O)n3C2)cc1` ?
-0.483

`COc1ccccc1N(CC(=O)NCc1ccccc1)S(C)(=O)=O` ?
-0.28

`CCc1nnc(NC(=O)c2cccc(C(=O)Nc3nnc(CC)s3)n2)s1` ?
-0.398

`COc1ccc(-c2coc3cc(O)cc(O)c3c2=O)cc1` ?
-0.544

CCOC(=O)c1sc(N2C(=O)C(O)=C(C(=O)c3ccco3)C2c2ccccc2)nc1C (centres undefined) ?
-0.37

`COc1ccc2cc([C@H](C)C(=O)O)ccc2c1` ?
-0.491

OCCN1CCN(CC(O)COc2ccc3ccccc3c2)CC1 (centres undefined) ?
-0.414

`CC1CCN(S(=O)(=O)c2ccc(NC(=O)CSc3nnnn3C)cc2)CC1` ?
-0.411

`CCCCc1ccc(NC(=O)c2c(C)noc2C)cc1` ?
-0.563

`Cc1cc(SCC(N)=O)nc(SCC(=O)c2ccccc2)n1` ?
-0.585

CCC(C)NC(=O)C1CCCN(S(=O)(=O)c2ccc(-n3cnnn3)cc2)C1 (centres undefined) ?
-0.279

`COc1ccccc1Nc1nc(N)nc(CN2CCN(c3ccccc3F)CC2)n1` ?
-0.571

`COc1cccc(CN(C)CC(=O)NC(=O)NCc2ccco2)c1` ?
-0.49

`Cc1cc(NS(=O)(=O)c2ccccc2)n(-c2ccccc2)n1` ?
-0.544

`C=C(C)CSc1nnc2[nH]c(=O)cc(N)n12` ?
-0.458

`CC(=O)Nc1ccc(Oc2cc(C#N)c(C#N)cc2N2CCCCCC2)cc1` ?
-0.377

`CCOc1ccccc1Nc1nc2ccccc2[nH]1` ?
-0.524

`CCN(CC)c1ccc(CNc2ccc(Br)cn2)cc1` ?
-0.546

###

# target.desc: Voltage-gated potassium channel subunit beta-2 (Rattus norvegicus)
# assay.info: enhancers of rat Kvbeta2 NADPH turnover – biochemical, NADPH fluorescence, primary screen (AID 623);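 further: fluorescence intensity change per second fitted from 20 to 320 s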
# measurement.context: Recombinant KvBeta, NADPH fluorescence decrease slope, 10 min; at 10 µM; hits give low values
attribute.measured: NADPH fluorescence slope
Lab note: record just the number, no unit beside it.

Find the recorded NADPH fluorescence slope belonging to `Cn1c(=O)oc2cc(S(=O)(=O)N3CCC(C(=O)Nc4ccc(OC(F)(F)F)cc4)CC3)ccc21` and report it.
-1.9e-05

`CCN1CCN(CCCNC(=O)c2cn(CCOC)c(=O)c3c2c2ccccc2n3C)CC1` ?
-1.9e-06

`COc1ccc(CN(C)CC(=O)c2c(N)n(Cc3ccccc3)c(=O)n(C)c2=O)c(OC)c1` ?
-1.3e-05

N#CCCCN1C(=O)C(O)(CC(=O)c2ccc3c(c2)OCCO3)c2ccccc21 (stereo not given) ?
1.9e-06

`O=C(C1CCC1)N1CCc2cc(S(=O)(=O)Nc3ccc4c(c3)OCO4)ccc21` ?
-6.2e-05

`O=C(COC(=O)c1ccco1)NCc1cccs1` ?
-5.7e-05

`COc1ccc(N(CC(=O)N2CCN(Cc3ccc4c(c3)OCO4)CC2)S(C)(=O)=O)cc1OC` ?
-1.7e-05

Cc1ccccc1NC(=O)N1C2CCCC1CC(NC(=O)C1CC1)C2 (stereo not given) ?
8.6e-05

`Cc1ccc(C(=O)Nc2nc3c(s2)CCCC3)o1` ?
-4.4e-05

`Cc1cccn2cc(-c3ccccc3)nc12` ?
-1.4e-05
